Below are compounds with their pIC50 as measured on human acetylcholinesterase (hAChE) (Homo sapiens).
Bear in mind: pIC50 is minus log10 of a mol/L concentration; give just that figure.

These recorded examples may help you get a feel for the data.
# MOLECULE SMILES, pIC50
data = [
    ("O=C1OC(/C=C/c2ccccc2)=NC/1=C\\c1ccccc1", 5.04),
    ("Cc1ccc(/C=C2N=C(/C=C/c3ccccc3)OC\\2=O)cc1", 4.02),
    ("O=C1OC(/C=C/c2ccccc2)=NC/1=C\\c1ccc(Cl)cc1", 4.05),
    ("CC(=O)Oc1cccc(/C=C2N=C(/C=C/c3ccccc3)OC\\2=O)c1O", 4.43),
    ("CC(=O)Oc1cccc(/C=C2N=C(/C=C/c3ccccc3)OC\\2=O)c1", 3.69),
    ("CC(=O)Oc1ccc(/C=C2N=C(/C=C/c3ccccc3)OC\\2=O)cc1", 3.61),
]

Query compound follows.
Input line: Write pIC50 of `COc1ccc(/C=C2N=C(/C=C/c3ccccc3)OC\2=O)cc1` ; system used: human acetylcholinesterase (hAChE) (Homo sapiens)
Output line: 3.86

* * *

Target: human acetylcholinesterase (hAChE) (Homo sapiens, UniProt P22303)
Construct: purchased Sigma Aldrich; host or cells: HEK 93 cells (so in the source)
Sequence (P22303 32-614): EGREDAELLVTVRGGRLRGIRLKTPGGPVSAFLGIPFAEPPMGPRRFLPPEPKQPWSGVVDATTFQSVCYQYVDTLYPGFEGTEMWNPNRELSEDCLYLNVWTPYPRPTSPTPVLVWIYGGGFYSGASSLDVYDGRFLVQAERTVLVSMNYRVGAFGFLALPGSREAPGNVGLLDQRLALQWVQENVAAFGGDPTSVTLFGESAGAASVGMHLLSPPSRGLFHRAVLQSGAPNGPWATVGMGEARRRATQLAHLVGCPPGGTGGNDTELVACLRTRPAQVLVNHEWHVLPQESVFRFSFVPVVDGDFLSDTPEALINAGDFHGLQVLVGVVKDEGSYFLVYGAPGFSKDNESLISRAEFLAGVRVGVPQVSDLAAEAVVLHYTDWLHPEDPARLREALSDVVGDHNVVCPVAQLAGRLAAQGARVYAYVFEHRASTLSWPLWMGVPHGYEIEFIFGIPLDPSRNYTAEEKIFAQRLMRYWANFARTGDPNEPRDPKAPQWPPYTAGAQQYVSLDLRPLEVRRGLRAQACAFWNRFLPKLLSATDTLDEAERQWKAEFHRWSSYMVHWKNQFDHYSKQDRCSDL
Test: Kinetic determinations of reversible hAChE inhibition (Ellman assay)
Assay type: biochemical
Settings: α of Vmax and Km referred to control AChE activity; mixed model inhibition
MEASURED PARAMETER: Parameter α
Respond numerically, and do not add a unit to the figure.

These recorded examples may help you get a feel for the data.
# MOLECULE SMILES, STUDY TARGET, RESULT NUMBER
records = [
    ("CC(=O)Oc1cccc(/C=C2N=C(/C=C/c3ccccc3)OC\\2=O)c1", "human acetylcholinesterase (hAChE) (Homo sapiens, UniProt P22303)", 1),
    ("COc1ccc(/C=C2N=C(/C=C/c3ccccc3)OC\\2=O)cc1", "human acetylcholinesterase (hAChE) (Homo sapiens, UniProt P22303)", 4.16),
    ("Cc1ccc(/C=C2N=C(/C=C/c3ccccc3)OC\\2=O)cc1", "human acetylcholinesterase (hAChE) (Homo sapiens, UniProt P22303)", 4.98),
    ("O=C1OC(/C=C/c2ccccc2)=NC/1=C\\c1ccccc1", "human acetylcholinesterase (hAChE) (Homo sapiens, UniProt P22303)", 21.84),
    ("CC(=O)Oc1ccc(/C=C2N=C(/C=C/c3ccccc3)OC\\2=O)cc1", "human acetylcholinesterase (hAChE) (Homo sapiens, UniProt P22303)", 0.006),
]

Query molecule follows.
Input line: Write Parameter α of `CC(=O)Oc1cccc(/C=C2N=C(/C=C/c3ccccc3)OC\2=O)c1O` ; system used: human acetylcholinesterase (hAChE) (Homo sapiens, UniProt P22303)
Output line: 18.27

* * *

Below are molecules with their log10(Ki) as measured on human acetylcholinesterase (hAChE) (Homo sapiens).
The figures below represent log10 of Ki, where Ki is stated in µM.

These recorded examples may help you get a feel for the data.
# MOLECULE SMILES, MEASURED PARAMETER, RESULT NUMBER
data = [
    ("CC(=O)Oc1ccc(/C=C2N=C(/C=C/c3ccccc3)OC\\2=O)cc1", "log10(Ki)", 2.30),
    ("COc1ccc(/C=C2N=C(/C=C/c3ccccc3)OC\\2=O)cc1", "log10(Ki)", 2.20),
    ("Cc1ccc(/C=C2N=C(/C=C/c3ccccc3)OC\\2=O)cc1", "log10(Ki)", 2.03),
    ("CC(=O)Oc1cccc(/C=C2N=C(/C=C/c3ccccc3)OC\\2=O)c1O", "log10(Ki)", 1.83),
]

Input line: Provide only the value of recorded log10(Ki) for `O=C1OC(/C=C/c2ccccc2)=NC/1=C\c1ccccc1`
Output line: 0.32

Input line: Provide only the value of recorded log10(Ki) for `O=C1OC(/C=C/c2ccccc2)=NC/1=C\c1ccc(Cl)cc1`
Output line: 1.99

Input line: Provide only the value of recorded log10(Ki) for `CC(=O)Oc1cccc(/C=C2N=C(/C=C/c3ccccc3)OC\2=O)c1`
Output line: 2.26
